EC50 reference
- TARGET: Estrogen receptor beta (Homo sapiens)
- Sequence (Q92731 whole entry): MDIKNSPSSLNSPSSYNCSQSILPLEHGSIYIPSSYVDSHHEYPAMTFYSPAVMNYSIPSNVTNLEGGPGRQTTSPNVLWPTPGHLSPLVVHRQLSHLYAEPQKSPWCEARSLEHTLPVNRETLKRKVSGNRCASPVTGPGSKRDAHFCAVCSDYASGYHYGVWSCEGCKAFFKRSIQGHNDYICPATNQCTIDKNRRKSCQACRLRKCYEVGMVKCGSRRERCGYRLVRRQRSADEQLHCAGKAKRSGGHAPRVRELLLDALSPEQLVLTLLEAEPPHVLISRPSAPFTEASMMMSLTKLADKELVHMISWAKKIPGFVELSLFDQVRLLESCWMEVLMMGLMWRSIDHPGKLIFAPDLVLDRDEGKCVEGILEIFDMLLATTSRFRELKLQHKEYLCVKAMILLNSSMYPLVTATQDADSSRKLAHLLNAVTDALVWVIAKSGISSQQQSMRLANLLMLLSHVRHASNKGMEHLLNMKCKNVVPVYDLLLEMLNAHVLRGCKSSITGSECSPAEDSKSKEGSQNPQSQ
- PROCEDURE_SUMMARY: Agonist activity at ERbeta by fluorescence polarization assay
Use nM as the unit, but write only the number.

COMPOUND: C[C@H]1CCCC(=O)CCCCCc2cc(O)cc(O)c2C(=O)O1 (stereo in doubt; 16) [ZEARALANONE]
RESULT: 38

COMPOUND: C[C@H]1CCCC(=O)CCC/C=C/c2cc(O)cc(O)c2C(=O)O1
RESULT: 110

We next turn to a different compound, shown below.
Note down EC50 recorded for C[C@H]1CCCC(=O)CCCCCc2cc(O)cc(O)c2C(=O)O1 (stereo in doubt; 19) [ZEARALANONE] 660

---

selectivity ratio reference
- PROCEDURE_SUMMARY: Selectivity index, ratio of cytotoxicity against african green monkey Vero cells to IC50 for HSV1 F
- Assay type: toxicity, cell-based
- CONDITION_INFO: read-out: Selectivity Index
Reply: number alone, nothing else.

MOLECULE: C[C@@H]1C[C@H]2O[C@@H]2CC/C=C/C(=O)Cc2cc(O)cc(O)c2C(=O)O1 [MONOCILLIN III]
selectivity ratio: 7.5

We next turn to a different molecule, shown below.
Note down selectivity ratio recorded for CC/C=C\[C@H](O)[C@H](O)C1=C(C)C(=O)[C@]2(O1)C(=O)N[C@@](OC)(C(=O)c1ccccc1)[C@@H]2O [PSEUROTIN A] 6
